Cited source: BindingDB's records for doi:10.1016/j.bmcl.2015.04.057

- Assay system: Coagulation factor IX (Homo sapiens)
- Experimental details: Inhibition of human coagulation factor 9a using fluorescent peptide CH3SO2-D-CHG-Gly-Arg-AFC-AcoH as substrate

[
  {
    "Compound": "Cc1cc2nc([C@@H](CNC(=O)c3c(Cl)cc(-n4cnnc4)cc3Cl)c3ccccc3)[nH]c2cc1C",
    "Measurement units": "nM",
    "Ki": 15.4
  }
]

###

- Assay system: Coagulation factor IX (Homo sapiens, UniProt P00740)
- Sequence (P00740 47-191 limits assumed): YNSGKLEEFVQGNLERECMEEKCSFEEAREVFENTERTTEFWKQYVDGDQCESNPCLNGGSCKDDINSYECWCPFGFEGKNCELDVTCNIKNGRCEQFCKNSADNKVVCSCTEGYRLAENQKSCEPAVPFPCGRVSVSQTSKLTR
- Sequence (P00740 227-461 limits assumed): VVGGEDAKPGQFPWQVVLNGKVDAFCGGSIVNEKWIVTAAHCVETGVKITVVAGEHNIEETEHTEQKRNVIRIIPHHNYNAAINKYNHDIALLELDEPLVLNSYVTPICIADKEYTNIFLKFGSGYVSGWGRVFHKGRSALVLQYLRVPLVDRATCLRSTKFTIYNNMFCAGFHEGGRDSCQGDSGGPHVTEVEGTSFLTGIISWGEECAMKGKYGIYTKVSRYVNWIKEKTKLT
- Experimental details: Inhibition of human coagulation factor 9a using fluorescent peptide CH3SO2-D-CHG-Gly-Arg-AFC-AcoH as substrate

[
  {
    "Compound": "Cc1cc2nc([C@@H](CNC(=O)c3c(Cl)cc(-n4cnnc4)cc3Cl)c3ccccc3)[nH]c2cc1C",
    "Measurement units": "µM",
    "Ki": 0.015
  }
]
